- TARGET_OF_ASSAY: HIF-2α (Homo sapiens)
- Construct: endogenous in cells
- Sequence (Q99814 whole entry): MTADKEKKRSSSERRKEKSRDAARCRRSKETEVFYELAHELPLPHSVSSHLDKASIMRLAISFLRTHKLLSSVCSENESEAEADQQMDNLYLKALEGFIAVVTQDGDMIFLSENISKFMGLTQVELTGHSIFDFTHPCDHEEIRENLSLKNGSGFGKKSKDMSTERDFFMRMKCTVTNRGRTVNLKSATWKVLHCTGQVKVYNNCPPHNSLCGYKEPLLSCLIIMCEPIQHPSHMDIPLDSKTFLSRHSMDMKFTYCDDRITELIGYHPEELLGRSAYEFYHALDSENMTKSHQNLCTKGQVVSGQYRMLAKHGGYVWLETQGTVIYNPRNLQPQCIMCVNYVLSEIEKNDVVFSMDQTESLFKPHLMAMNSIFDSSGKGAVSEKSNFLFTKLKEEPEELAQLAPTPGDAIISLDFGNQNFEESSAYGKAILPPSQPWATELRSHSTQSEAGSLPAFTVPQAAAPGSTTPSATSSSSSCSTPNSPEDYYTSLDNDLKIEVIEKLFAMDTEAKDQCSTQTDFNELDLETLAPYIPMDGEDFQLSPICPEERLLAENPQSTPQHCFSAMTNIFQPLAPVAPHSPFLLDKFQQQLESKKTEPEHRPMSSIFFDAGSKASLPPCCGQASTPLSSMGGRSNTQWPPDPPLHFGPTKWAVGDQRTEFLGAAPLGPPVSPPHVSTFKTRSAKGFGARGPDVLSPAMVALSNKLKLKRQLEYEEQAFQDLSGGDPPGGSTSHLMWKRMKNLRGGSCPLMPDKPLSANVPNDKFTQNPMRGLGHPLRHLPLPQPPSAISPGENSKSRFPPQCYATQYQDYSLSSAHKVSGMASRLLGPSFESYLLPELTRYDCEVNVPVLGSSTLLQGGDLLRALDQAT
- EXPERIMENTAL_DETAILS: VEGF ELISA Assay
- CONDITIONS_USED: VEGF expression in 786-0 cells; VEGF in culture medium by ELISA; four parameter dose-response fit
In plain terms, low EC50, meaning strictly below 400 nM, gives T, and everything else gives F.

Some entries whose results are on file:
- MOLECULE: "CC1CCC2(O)c3c(ccc(Oc4cc(F)cc(C#N)c4)c31)C(F)(F)C2(F)F (single isomer, unassigned) [one of 7-1 and 7-2]"
  CAT: "T"
- MOLECULE: "N#Cc1cc(F)cc(Oc2ccc3c4c2CCC[C@]4(O)C(F)(F)C3(F)F)c1"
  CAT: "T"
- MOLECULE: "N#Cc1cc(F)cc(Oc2ccc3c4c2C(F)C(F)(F)CC4(O)C(F)(F)C3(F)F)c1 (stereo not drawn)"
  CAT: "T"
- MOLECULE: "C=C1CCC2(O)c3c(ccc(Oc4cc(F)cc(C#N)c4)c31)C(F)(F)C2(F)F (stereo not drawn)"
  CAT: "F"

Here's an entry: N#Cc1cc(F)cc(Oc2ccc3c4c2CCCC4(O)C(F)(F)C3(F)F)c1 (stereo not drawn) . Is its EC50 below 400 nM?
T

Here's an entry: CC1CCC2(O)c3c(ccc(Oc4cc(F)cc(C#N)c4)c31)C(F)(F)C2(F)F (single isomer, unassigned) [the other of 7-1 and 7-2] . Is its EC50 below 400 nM?
F
